Cited source for all entries: PubChem BioAssay AID179

Test system: CEM cells HIV-1 protection, formazan growth assay
Test: NCI AIDS Antiviral Assay
Conditions: measured here: growth of uninfected CEM cells
log10(IC50): recorded values
Could you please treat all values as log10 of IC50 in µM?

// known answers, use as guide
COc1ccc2cc3[n+](cc2c1O)CCc1cc2c(cc1-3)OCO2 ... 0.78
NC(=O)c1cccc(N=O)c1 ... 1.11
Cc1cc(NS(=O)(=O)c2ccc(NC(=O)c3cccc4c(Nc5ccc(S(=O)(=O)Nc6cc(C)on6)cc5)c5ccc(Cl)cc5nc34)cc2)no1 ... 2.13
C=C1C[C@@H]2O[C@H]3[C@H]4[C@@H](C[C@@H](C)[C@@H](OC(C)=O)[C@H]42)[C@@H](C)CO[C@@]3(C)[C@H](OC(=O)CCCCCCC)C[C@H]1O ... 1.04
O=C(CC(=O)Nc1ccccc1)NNC(c1cc(N=Nc2ccc(Br)cc2)ccc1O)P(O)O (stereo unspecified) ... 0.60
CSC1(C)CC2C(CC1N1CCCCC1)C2(C)C (stereo unspecified) ... 1.65

Exam item: Return reported log10(IC50). Input compound: C[C@@H](NC(=O)c1ccccc1SC(=O)OCCCCCl)C(N)=O
Marked response: 2.29

Exam item: Given the compound O=C(CCl)N1CCN(c2ccccc2)CC1 , write its reported log10(IC50).
Marked response: 0.08

Exam item: Please report the measured log10(IC50) for COC(=O)Nc1nc2cc(OC)c(OC)cc2c(=O)[nH]1
Marked response: 0.94

Exam item: Identify measured log10(IC50) corresponding to Cc1cc(NS(=O)(=O)c2ccc(Nc3c4ccccc4nc4c(C(=O)NCCO)cccc34)cc2)no1
Marked response: 1.10

Exam item: Output log10(IC50) of CN(C)CCCSc1c2ccccc2nc2cc(NCC(=O)Nc3ccccc3-c3ccccc3NC(=O)CNc3ccc4c(SCCCN(C)C)c5ccccc5nc4c3)ccc12
Marked response: 1.77

Exam item: Provide log10(IC50) value for the following compound: COc1cc2c(cc1OC)C(=O)/C(=C/c1ccc(N(C)C)cc1)CC2
Marked response: 2.04
